Origin of values: patent US20240209076A1

SYSTEM: T1, recombinant human IL-6 (human, UniProt P05231 30-212)
T1 construct: Bought protein
T1 sequence (P05231 30-212 limits assumed): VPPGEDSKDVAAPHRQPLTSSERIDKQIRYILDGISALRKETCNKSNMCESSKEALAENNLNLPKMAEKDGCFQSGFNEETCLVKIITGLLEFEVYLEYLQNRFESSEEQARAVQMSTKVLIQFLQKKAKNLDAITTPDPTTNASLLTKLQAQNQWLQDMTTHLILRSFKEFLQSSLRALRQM
TEST_NAME: SPR Biacore, supernatant Ab on Protein A chip, IL-6 analyte, 25 C
I'd be grateful if you could share measured pKd for these entries.
One number for each entry, as −log10 of the molar value.

Some binders with recorded pKd:
anti-IL-6 antibody, light chain L46V (heavy chain WT) (antibody, V domains shown, See note of m2; also called WT / L46V) VH: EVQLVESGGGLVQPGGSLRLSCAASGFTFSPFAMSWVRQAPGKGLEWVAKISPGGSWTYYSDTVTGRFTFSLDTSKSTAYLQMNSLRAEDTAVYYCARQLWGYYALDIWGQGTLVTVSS VL: DIQLTQSPSSLSASVGDRVTITCSASISVSYMYWYQQKPGKAPKLVIYDMSNLASGVPSRFSGSGSGTDFTLTISSLQPEDFATYYCMQWSGYPYTFGQGTKVEIK    9.35
anti-IL-6 antibody, light chain Y95G (heavy chain WT) (antibody, V domains shown, See note of m2; also called WT / Y95G) VH: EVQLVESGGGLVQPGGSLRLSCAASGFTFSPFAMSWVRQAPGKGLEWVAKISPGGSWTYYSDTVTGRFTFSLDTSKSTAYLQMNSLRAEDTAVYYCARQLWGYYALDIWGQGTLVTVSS VL: DIQLTQSPSSLSASVGDRVTITCSASISVSYMYWYQQKPGKAPKLLIYDMSNLASGVPSRFSGSGSGTDFTLTISSLQPEDFATYYCMQWSGYPGTFGQGTKVEIK    9.42

Now turn to the next binder.
Which pKd value belongs to anti-IL-6 antibody, light chain D49E (heavy chain WT) (antibody, V domains shown, See note of m2; also called WT / D49E) VH: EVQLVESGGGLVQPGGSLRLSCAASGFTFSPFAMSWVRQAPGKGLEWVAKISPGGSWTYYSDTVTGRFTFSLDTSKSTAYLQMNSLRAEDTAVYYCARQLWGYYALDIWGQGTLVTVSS VL: DIQLTQSPSSLSASVGDRVTITCSASISVSYMYWYQQKPGKAPKLLIYEMSNLASGVPSRFSGSGSGTDFTLTISSLQPEDFATYYCMQWSGYPYTFGQGTKVEIK ?
9.62
